Values were extracted from PubChem BioAssay (NCI).

Tested on: HCT-116 colon
Experiment: NCI-60 one-dose screen, 48 h
Conditions: 10 µM unless noted
This is part of a sample that, as a whole, favours compounds with a hit. Of some 83,000 tested, about 20% had one in any assay. Active and inactive are the calls of the source. How the source made its calls: active means growth percent below 10; inactive means the rest.
Outcomes you can answer with include only these: active, inactive

COc1ccc(C(=O)/C=C/c2ccc(OCc3ccc(C)cc3)c(OC)c2)cc1OC ... inactive
COc1ccc(NC(=O)c2sc3nc(-c4cnccn4)cc(-c4cccs4)c3c2N)cc1 ... inactive
O=C1c2c(c3c4cc(Br)ccc4[nH]c3c3ccc4ccccc4c23)C(=O)N1CCO ... inactive

IN: What did this assay record as the result for "N#Cc1ccc(C(=O)CSc2nc(Nc3ccc(S(N)(=O)=O)cc3)c3ccccc3n2)cc1" ?
OUT: inactive

IN: What did this assay record as the result for "Cc1cccc2sc(/N=C(\N)C(Br)Br)nc12" ?
OUT: active

IN: What did this assay record as the result for "COc1ccc(C(=O)c2cc(C(=O)/C=C/c3c(Cl)cccc3Cl)c3cc(C)ccn23)cc1" ?
OUT: inactive

IN: What did this assay record as the result for "CCOC(=O)c1sc(N)c(C(=O)OCC)c1C" ?
OUT: inactive

IN: What did this assay record as the result for "CN(C)CCCOc1c2ccccc2nc2c1oc1ccc(Cl)cc12" ?
OUT: inactive

IN: What did this assay record as the result for "Cc1sc2nc(NCc3ccccc3Cl)[nH]c(=O)c2c1C" ?
OUT: inactive

IN: What did this assay record as the result for "COc1ccc(-c2nc3ccc(-c4nnc(SCC(=O)Nc5ccc(C(=O)/C=C/c6ccccc6)cc5)o4)cc3[nH]2)cc1OC" ?
OUT: inactive

---

System: SF-268 CNS
Assay: NCI-60 one-dose screen, 48 h (100 = growth as untreated, 0 = no growth, -100 = all killed)
Conditions: 10 µM unless noted
About 83,000 compounds went through this panel and 20% of them were active in at least one assay; those are over-represented in the sample as a whole. The source made the active and inactive calls. The calls were made as follows: active = growth percent below 10; inactive = the rest.
Measured parameter: growth

Illustrative cases are given below, each with its answer.
CC(C)(C)Nc1nc2c(OCCc3ccccc3)cccn2c1-c1cccc(F)c1 ... 18.8% (inactive)
O=C(CCN1C(=O)/C(=C/c2ccccc2)SC1=S)N1CCOCC1 ... 97.7% (inactive)
Cn1ccnc1C(=O)/C=C/c1ccc(NC(=O)Nc2ccccc2)cc1 ... 3.22% (active)

Hey, can you go through the list below and give me growth for every item?
1. COc1cc2nc(-c3ccc(C(F)(F)F)cc3)cc(OCCCNCC3CCCO3)c2cc1OC (centres undefined)
2. O=C(CSc1nnc(-c2ccc3nc(-c4ccc(Cl)cc4)[nH]c3c2)o1)Nc1ccc(C(=O)/C=C/c2ccc(Cl)cc2)cc1
3. O=C(N/N=C/c1ccc[nH]1)c1[nH]c2ccc(Br)cc2c1-c1ccccc1

OUT:
1: 59.5% (inactive); 2: 99.9% (inactive); 3: 25.3% (inactive)

Hey, can you go through the list below and give me growth for every item?
1. C=C1CC[C@H]2[C@@](C)(CCC3OC(c4ccc(OCc5cn(C6CC(OC(C)=O)C(OC(C)=O)C(COC(C)=O)O6)nn5)cc4)OC[C@]32C)[C@@H]1/C=C/C1=CCOC1=O (some centres undefined)
2. CN(C)CCCOc1c2ccc(Cl)cc2nc2c1oc1ccccc12
3. CSCCC(C(=O)O)N1C(=O)/C(=C/c2ccc(O)c(O)c2)SC1=S (centres undefined)

OUT:
["90.3% (inactive)", "-9.41% (active)", "97.6% (inactive)"]
